# Tested on: U87
# assayNotes: Antiproliferation assay (Alamar Blue), U87
# Type: cell-based
# conditionsUsed: Homo sapiens, U-87 MG; U87, brain cancer; read-out: EC50 of YL001
pEC50: −log10 of the molar value.
endpointLabel: pEC50

{"columns": ["querySmiles", "measuredNumber"],
 "data": [
  ["Cc1ccc(-n2nnnc2/C(=C/N(C)C)C(=O)c2cccc(C(F)(F)F)c2)cc1", 4.58]
]}

----------
Entries and their Inhibition (50 μM)
# System: human cancer cell lines
# assayNotes: Antiproliferation screening of 23 selected compounds (Alamar Blue)
# Type: cell-based
# conditionsUsed: proliferation inhibition

{"columns": ["compound", "assayTarget", "Inhibition (50 μM)"],
 "data": [
  ["O=[N+]([O-])c1ccc(COc2ccccc2C2N(Cc3ccccc3)CCN2Cc2ccccc2)cc1 [AG-205/14740101]", "human cancer cell lines", "0.87%"],
  ["N#CC1=C(N)Oc2n[nH]c(-c3cccc4ccccc34)c2C1c1cccc(O)c1 (stereo not shown) [AJ-292/15089069]", "human cancer cell lines", "58.97%"],
  ["Cc1ccc(N2C(=O)CSC23C(=O)N(CN2CCN(c4ccccc4)CC2)c2ccccc23)cc1C (stereo not shown) [AG-205/13460017]", "human cancer cell lines", "30.78%"],
  ["CC(=O)C1=NN(c2ccc(Cl)cc2)C(c2ccc3c(c2)OCO3)N1c1ccccc1 (stereo not shown) [AK-778/11811129]", "human cancer cell lines", "9.38%"],
  ["COC(=O)CN1C(c2ccccc2)=Nc2ccc(Br)cc2C1c1ccccc1 (stereo not shown) [AG-690/36921098]", "human cancer cell lines", "21.81%"],
  ["CCc1cc(C(c2ccccc2F)N2CCOCC2)c(NC(=O)c2ccccc2)s1 (stereo not shown) [AP-906/42853823]", "human cancer cell lines", "19.16%"],
  ["CCOC(=O)C1=CN2C(C=C1)C(C(=C(C#N)C#N)C1CC1)C(c1ccccc1)C2C(=O)c1ccccc1 (stereo not shown) [AG-205/33162003]", "human cancer cell lines", "60.89%"],
  ["N=C1/C(=C(/O)c2ccccc2)C(c2ccccc2)C2=C(CCCC2=O)N1c1ccc(Br)cc1 (stereo not shown) [AN-919/14547075]", "human cancer cell lines", "27.56%"],
  ["Cc1ccc(-n2nnnc2/C(=C/N(C)C)C(=O)c2cccc(C(F)(F)F)c2)cc1 [AG-401/37257005]", "human cancer cell lines", "95.06%"],
  ["OC(COCc1ccc2c(c1)OCO2)CN1CCN(C(c2ccccc2)c2ccccc2)CC1 (stereo not shown) [AF-399/14739190]", "human cancer cell lines", "22.02%"],
  ["Cn1cc(C2C(=O)NC(c3ccccc3)=NN2C(=O)c2ccccc2)c2ccccc21 (stereo not shown) [AG-227/37394007]", "human cancer cell lines", "97.78%"],
  ["Cc1ccc(N=C2S/C(=C/c3ccccc3OCC(=O)N3CCOCC3)C(=O)N2Cc2ccccc2)cc1 [AO-081/41364431]", "human cancer cell lines", "29.79%"],
  ["Cc1ccc(C2C3=C(CCCC3=O)N(c3ccc(Br)cc3)C(=N)/C2=C(/O)c2ccccc2)cc1 (stereo not shown) [AN-919/14547113]", "human cancer cell lines", "21.56%"],
  ["CC(=O)Nc1sc2c(c1C(c1ccc(OC(F)F)cc1)N1CCOCC1)CCCC2 (stereo not shown) [AF-399/41981012]", "human cancer cell lines", "14.85%"],
  ["Cc1ccc(SC(c2ccccc2)C(Cn2cncn2)C(=O)c2ccc(Br)cc2)cc1 (stereo not shown) [AQ-714/41675002]", "human cancer cell lines", "32.65%"]
]}

----------
Measured Inhibition (50 μM) accompanies every entry in the list below.
# Tested on: human cancer cell lines
# assayNotes: Antiproliferation screening of 23 selected compounds (Alamar Blue)
# Format: cell-based
# conditionsUsed: proliferation inhibition
# Description: Cytotoxic activities of the compounds of interest were investigated with human cancer cell lines using the Alamar Blue assay. Cells (5 × 10^3 cells/well) were seeded into 96-well plates (Corning, 3603). […] After incubation, florescence was measured using a microplate reader (Tecan) at an excitation wavelength of 540 nm and emission of 590 nm. Each inhibitory concentration was measured in triplicate, and averaged data points ± SD are shown. […]
endpointLabel: Inhibition (50 μM)

{"columns": ["compound", "assayTarget", "result"],
 "data": [
  ["Cc1ccc(/C(O)=C2\\C(=N)N(c3ccccc3)C3=C(C(=O)CCC3)C2c2ccccc2)cc1 (stereo not drawn) [AN-919/14547078]", "human cancer cell lines", "30.07%"],
  ["CC1(C)CC(=O)C2=C(C1)OC(N)=C(C#N)C21C(=O)N(Cc2ccccc2Cl)c2ccccc21 (stereo not drawn) [AM-807/14957480]", "human cancer cell lines", "30.76%"]
]}

Cited source for all entries: paper PMC5522084
